Tested On: T1, RRAS1, mGppNHp-bound (human, UniProt P10301 1-218)
T1 construct: human RRAS (RRAS1); Loaded with mGppNHp
T1 sequence (looked up): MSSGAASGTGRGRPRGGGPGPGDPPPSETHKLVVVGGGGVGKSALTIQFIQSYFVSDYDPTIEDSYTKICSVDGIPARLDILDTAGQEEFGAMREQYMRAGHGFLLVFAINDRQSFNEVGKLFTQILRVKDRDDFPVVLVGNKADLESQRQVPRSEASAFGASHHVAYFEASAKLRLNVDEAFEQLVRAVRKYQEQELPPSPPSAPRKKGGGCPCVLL
Method Summary: fluorescence polarisation; increasing concentrations of the RA/RB domain as MBP fusion protein (0.002-300 µM; or MBP alone) titrated to mGppNHp-bound RAS protein (1 µM); 30 mM Tris-HCl pH 7.4, 100 mM NaCl, 5 mM MgCl2, 3 mM DTT; Kd from a quadratic ligand-binding equation
Reported Conditions: both partners purified
Would you mind telling me the reported pKd of each entry?
Answers are plain numbers, as −log10 of the molar value.

Look over these answered cases.
[
  {
    "Binder": "RASSF7 RA domain, MBP fusion protein (domain or fragment, human, UniProt Q02833 6-89, looked up, RASSF7 RA domain, aa 6-89 of Q02833) AAMELKVWVDGIQRVVCGVSEQTTCQEVVIALAQAIGQTGRFVLVQRLREKERQLLPQECPVGAQATCGQFASDVQFVLRRTGP",
    "pKd": 4.52
  },
  {
    "Binder": "RASSF3 RA domain, MBP fusion protein (domain or fragment, human, UniProt Q86WH2 79-187, looked up, RASSF3 RA domain, aa 79-187 of Q86WH2) YTGFIKVQMELCKPPQTSPNSGKLSPSSNGCMNTLHISSTNTVGEVIEALLKKFLVTESPAKFALYKRCHREDQVYACKLSDREHPLYLRLVAGPRTDTLSFVLREHEI",
    "pKd": 3.36
  },
  {
    "Binder": "RASSF2 RA domain, MBP fusion protein (domain or fragment, human, UniProt P50749 176-264, looked up, RASSF2 RA domain, aa 176-264 of P50749) YNHKTSVFTPAYGSVTNVRINSTMTTPQVLKLLLNKFKIENSAEEFALYVVHTSGEKQKLKATDYPLIARILQGPCEQISKVFLMEKDQ",
    "pKd": 3.91
  }
]

Query :: Tell me the measured pKd of RASSF1 RA domain, MBP fusion protein (domain or fragment, human, UniProt Q9NS23 194-288, looked up, RASSF1 RA domain, aa 194-288 of Q9NS23) RGPGRGTSVRRRTSFYLPKDAVKHLHVLSRTRAREVIEALLRKFLVVDDPRKFALFERAERHGQVYLRKLLDDEQPLRLRLLAGPSDKALSFVLK , please.
Result :: 4.48
